Target: T1, human interleukin 13 receptor subunit alpha 2 (IL-13RA2) (human, UniProt Q14627 27-380)
T1 construct: whole, on cells; also called IL-13Rα2; CD213A2
T1 sequence (looked up): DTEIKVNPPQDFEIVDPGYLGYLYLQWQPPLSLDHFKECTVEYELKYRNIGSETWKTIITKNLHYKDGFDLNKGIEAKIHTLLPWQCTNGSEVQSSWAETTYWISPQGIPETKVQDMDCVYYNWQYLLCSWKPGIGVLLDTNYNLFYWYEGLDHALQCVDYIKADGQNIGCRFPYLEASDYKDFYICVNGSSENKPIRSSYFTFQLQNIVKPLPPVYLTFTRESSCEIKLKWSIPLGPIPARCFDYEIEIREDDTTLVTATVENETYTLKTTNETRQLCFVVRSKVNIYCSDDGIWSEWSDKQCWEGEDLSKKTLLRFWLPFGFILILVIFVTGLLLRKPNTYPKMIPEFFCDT
Assay: FACS on A375 cells
quantity measured: Top (MFI)
// return numeric value only (unit: MFI, not printed)

Solved cases (4 shown):
Which Top (MFI) value is on record for 61H8C1 H1L1 hIgG1 (antibody, V domains shown, humanized, hIgG1) VH: QVQLVQSGAEVKKPGASVKVSCKASGYTFTSYWTQWVRQAPGQGLEWMGAIYPGDDDTSYNQKFKGRVTMTRDTSTSTVYMELSSLRSEDTAVYYCARGATLLRPFPYWGQGTLVTVSS VL: DIQMTQSPSSLSASVGDRVTITCKASQDVSTAVAWYQQKPGKAPKLLIYSASYRYTGVPSRFSGSGSGTDFTLTISSLQPEDFATYYCQQHYSIPPTFGQGTKLEIK ?
20300

Query (binder): 61H8C1 H3L1 hIgG1 (antibody, V domains shown, humanized, hIgG1) VH: QVQLVQSGAEVAKPGASVKVSCKASGYTFTSYWTQWIRQAPGQGLEGIGAIYPGDDDTSYNQKFKGRATLTADKSTSTVYMQLSSLRSEDTAVYYCARGATLLRPFPYWGQGTLVTVSS VL: DIQMTQSPSSLSASVGDRVTITCKASQDVSTAVAWYQQKPGKAPKLLIYSASYRYTGVPSRFSGSGSGTDFTLTISSLQPEDFATYYCQQHYSIPPTFGQGTKLEIK ; field requested: Top (MFI)
20600

Look at this binder and give its reported Top (MFI). 61H8C1 H3L2 hIgG1 (antibody, V domains shown, humanized, hIgG1) VH: QVQLVQSGAEVAKPGASVKVSCKASGYTFTSYWTQWIRQAPGQGLEGIGAIYPGDDDTSYNQKFKGRATLTADKSTSTVYMQLSSLRSEDTAVYYCARGATLLRPFPYWGQGTLVTVSS VL: DIQMTQSPSSLSTSVGDRVTITCKASQDVSTAVAWYQQKPGKSPKLLIYSASYRYTGVPSRFSGSGSGTDFTLTISSLQPEDFATYSCQQHYSIPPTFGQGTKLEIK
22300

GET /values?readout=Top (MFI)&item= 57F8H3F1 H4L1 hIgG1 (antibody, V domains shown, humanized, hIgG1) VH: QVQLVQSGAEVVKPGASVKLSCKASGYTFTNYWMNWVKQRPGQGLEWIGRIDAYETETHYNQKFRDRAILTVDKSTSTAYMELRSLRSEDTAVYYCARGYGHYYGVDYWGQGTLVTVSS VL: DIQMTQSPSSLSASVGDRVTITCRASENVGNFGISFVNWYQQKPGKAPKLLIYAASNLGSGVPSRFSGSGSGTDFTLTISSLQPEDFATYYCQQSKGVPWTFGQGTKVEIK
7350

Others:
Consider the binder 61H8C1 H1L2 hIgG1 (antibody, V domains shown, humanized, hIgG1) VH: QVQLVQSGAEVKKPGASVKVSCKASGYTFTSYWTQWVRQAPGQGLEWMGAIYPGDDDTSYNQKFKGRVTMTRDTSTSTVYMELSSLRSEDTAVYYCARGATLLRPFPYWGQGTLVTVSS VL: DIQMTQSPSSLSTSVGDRVTITCKASQDVSTAVAWYQQKPGKSPKLLIYSASYRYTGVPSRFSGSGSGTDFTLTISSLQPEDFATYSCQQHYSIPPTFGQGTKLEIK and give its measured Top (MFI).
19600

Form field: reported Top (MFI) of 57F8H3F1 H2L4 hIgG1 (antibody, V domains shown, humanized, hIgG1) VH: QVQLVQSGAEVVKPGASVKVSCKASGYTFTNYWMNWVRQAPGQGLEWIGRIDAYETETHYNQKFRDRVTMTVDTSTSTVYMELSSLRSEDTAVYYCARGYGHYYGVDYWGQGTLVTVSS VL: DIVLTQSPSSLSASVGDRATITCRASENVGNFGISFVNWFQQKPGKPPKLLIYAASNLGSGDPARFSGSGSGTDFTLTISSLQPEDFATYFCQQSKGVPWTFGGGTKLEIK
7140

Looking for the measured Top (MFI) of 61H8C1 H1L4 hIgG1 (antibody, V domains shown, humanized, hIgG1) VH: QVQLVQSGAEVKKPGASVKVSCKASGYTFTSYWTQWVRQAPGQGLEWMGAIYPGDDDTSYNQKFKGRVTMTRDTSTSTVYMELSSLRSEDTAVYYCARGATLLRPFPYWGQGTLVTVSS VL: DIVMTQSPSSLSTSVGDRVTITCKASQDVSTAVAWYQQKPGKSPKLLIYSASYRYTGVPDRFTGSGSGTDFTFTISSVQPEDFATYSCQQHYSIPPTFGGGTKLEIK , can you help?
19800

Which value of Top (MFI) has been reported for 61H8C1 H3L4 hIgG1 (antibody, V domains shown, humanized, hIgG1) VH: QVQLVQSGAEVAKPGASVKVSCKASGYTFTSYWTQWIRQAPGQGLEGIGAIYPGDDDTSYNQKFKGRATLTADKSTSTVYMQLSSLRSEDTAVYYCARGATLLRPFPYWGQGTLVTVSS VL: DIVMTQSPSSLSTSVGDRVTITCKASQDVSTAVAWYQQKPGKSPKLLIYSASYRYTGVPDRFTGSGSGTDFTFTISSVQPEDFATYSCQQHYSIPPTFGGGTKLEIK in the records?
22000

Tell me the measured Top (MFI) of 57F8H3F1 H2L2 hIgG1 (antibody, V domains shown, humanized, hIgG1) VH: QVQLVQSGAEVVKPGASVKVSCKASGYTFTNYWMNWVRQAPGQGLEWIGRIDAYETETHYNQKFRDRVTMTVDTSTSTVYMELSSLRSEDTAVYYCARGYGHYYGVDYWGQGTLVTVSS VL: DIQMTQSPSSLSASVGDRVTITCRASENVGNFGISFVNWFQQKPGKAPKLLIYAASNLGSGDPSRFSGSGSGTDFTLTISSLQPEDFATYFCQQSKGVPWTFGQGTKVEIK , please.
7090

Item under review: 57F8H3F1 H3L1 hIgG1 (antibody, V domains shown, humanized, hIgG1) VH: QVQLVQSGAEVVKPGASVKLSCKASGYTFTNYWMNWVKQAPGQGLEWIGRIDAYETETHYNQKFRDRATLTVDKSTSTVYMELSSLRSEDTAVYYCARGYGHYYGVDYWGQGTLVTVSS VL: DIQMTQSPSSLSASVGDRVTITCRASENVGNFGISFVNWYQQKPGKAPKLLIYAASNLGSGVPSRFSGSGSGTDFTLTISSLQPEDFATYYCQQSKGVPWTFGQGTKVEIK . Reported Top (MFI)?
8160
